- Tested on: N171-82Q HD mice
- experimental.details: High-altitude balance beam (5 mm) experiment 2, HD mice
- Assay type: in vivo, mouse
- recorded.conditions: 5 mg/kg/d intragastric, 18 w
attribute.measured: Time for crossing the beams, high-altitude balance beam (5 mm) (s)

compound	units.label	assay.result
CC1CC(C)CN(c2ccc(-c3cc(=O)c4ccc(O)c(O)c4o3)cc2)C1 (centres unmarked)	s	14.98
COc1ccc2c(=O)cc(-c3ccc(N4CCCCC4)cc3)oc2c1OC	s	13.96
CN(C)C1CCN(c2ccc(-c3cc(=O)c4ccc(O)c(O)c4o3)cc2)CC1	s	12.99
CC1(C)CCN(c2ccc(-c3cc(=O)c4ccc(O)c(O)c4o3)cc2)CC1	s	13.88
O=c1cc(-c2ccc(N3CCCCC3)cc2)oc2c(O)c(O)ccc12	s	12.09

---

- Test system: N171-82Q HD mice
- experimental.details: Rotarod experiment, HD mice
- Type: in vivo, mouse
- recorded.conditions: 5 mg/kg/d intragastric, 12 w
attribute.measured: Time to drop (drop latent period), rotarod (s)

compound	assay.system	assay.result
CC1(C)CCN(c2ccc(-c3cc(=O)c4ccc(O)c(O)c4o3)cc2)CC1 [Example 4]	N171-82Q HD mice	95.09
CN(C)C1CCN(c2ccc(-c3cc(=O)c4ccc(O)c(O)c4o3)cc2)CC1 [Example 3]	N171-82Q HD mice	94.15
CC1CC(C)CN(c2ccc(-c3cc(=O)c4ccc(O)c(O)c4o3)cc2)C1 (stereo not drawn) [Example 5]	N171-82Q HD mice	98.19
